# Test system: tobacco cutworm
# experimentNotes: Long-lasting insecticidal effect on tobacco cutworm (sprayed cabbage plantlet)
# Format: in vivo, Prodenia litura
# details: Table 5; concentration 500 (unit not given); leaves cut on 15th day, mortality after 48 hours
# Procedure: (A) An emulsifiable concentrate prepared as described in Formulation Example 2 was diluted with water to a predetermined concentration and sprayed onto a cabbage plantlet in a flower pot of 15 cm in diameter using a spray-gun sufficiently and the tests plants were placed in a green house. […] After 48 hours, percent mortality was assessed. […]
assayEndpoint: Percent Mortality After Application 15th Day (%)

1) CCCSP(=S)(OC)Oc1ccc2c(c1)OC(C)=CC2(C)C (stereo not drawn) : 93.3
2) CCC(C)SP(=O)(OC)Oc1ccc2c(c1)OC(C)=CC2(C)C (stereo not drawn) : 100
3) CCCSP(=O)(OCC)Oc1ccc2c(c1)OC(C)CC2(C)C (stereo not drawn) : 53.3
4) CNC(=O)ON=C(C)SC [Lannate, reference compound] : 0
5) CCCSP(=S)(OCC)Oc1ccc2c(c1)OC(C)=CC2(C)C (stereo not drawn) : 96.7
6) COP1(=S)OCc2ccccc2O1 (stereo not drawn) [Salithion, reference compound] : 0
7) CCCSP(=O)(OCC)Oc1ccc2c(c1)OC(C)=CC2(C)C (stereo not drawn) : 100
8) CCCSP(=O)(OC)Oc1ccc2c(c1)OC(C)=CC2(C)C (stereo not drawn) : 100
9) CCCSP(=O)(OCC)Oc1ccc2c(c1)OC(C)(C)C=C2C (stereo not drawn) : 33.3

* * *

# Tested on: diamond back moth
# experimentNotes: Insecticidal effect on diamond-back moth (cabbage leaf dip)
# Assay type: in vivo, Plutella xylostella
# details: Table 8; 100 ppm; after 72 hours, 25°C; emulsifiable concentrate as Formulation Example 4
Measured Percent Mortality (%), listed per entry.
assayEndpoint: Percent Mortality (%)

1) CCC(C)SP(=O)(OC)Oc1ccc2c(c1)OC(C)(C)C=C2C (centres unmarked) : 100
2) CCOP(=O)(Oc1ccc2c(c1)OC(C)(C)C=C2C)SC(C)CC (centres unmarked) : 83.3
3) CCOP(=O)(Oc1cccc2c1C(C)=CC(C)(C)O2)SC(C)CC (centres unmarked) : 100
4) CCCSP(=O)(OCC)Oc1cccc2c1C(C)=CC(C)(C)O2 (centres unmarked) : 100
5) COP(=O)(OC)OC=C(Cl)Cl [DDVP, reference compound] : 6.7
6) CCCSP(=O)(OCC)Oc1ccc2c(c1)OC(C)CC2(C)C (centres unmarked) : 100
7) CCCSP(=S)(OCC)Oc1cccc2c1C(C)=CC(C)(C)O2 (centres unmarked) : 96.7
8) CCCSP(=O)(OCC)Oc1ccc2c(c1)OC(C)(C)C=C2C (centres unmarked) : 100

* * *

# Test system: rice stem borer
# experimentNotes: Insecticidal effect on rice stem borer, 3rd-instar larvae (rice seedling dip)
# Type: in vivo, Chilo suppressalis
# details: Table 1; 100 ppm; after 72 hours, 25°C; wettable powder as Formulation Example 5
assayEndpoint: Percent Mortality (%)

1. CCCSP(=O)(OCC)Oc1ccc2c(c1)OC(CC)=C(C)C2(CC)CC (stereo not drawn) : 100
2. CCOP(=O)(Oc1cccc2c1C(C)=CC(C)(C)O2)SC(C)CC (stereo not drawn) : 100
3. CCOP(=O)(Oc1ccc2c(c1)OC(CC)=C(C)C2(CC)CC)SC(C)CC (stereo not drawn) : 100
4. CCCSP(=O)(OCC)Oc1ccc2c(c1)OC(C)(C)C=C2C (stereo not drawn) : 100
5. CCOP(=O)(Oc1ccc2c(c1)OC(C)(C)C=C2C)SC(C)CC (stereo not drawn) : 100
6. CCCSP(=O)(OCC)Oc1ccc2c(c1)OC(C)CC2(C)C (stereo not drawn) : 100
7. CCC(C)SP(=O)(OC)Oc1ccc2c(c1)OC(C)=CC2(C)C (stereo not drawn) : 100
8. COP(=O)(OC)C(O)C(Cl)(Cl)Cl (stereo not drawn) [Dipterex, reference compound] : 100
9. CCCSP(=O)(OCC)Oc1cccc2c1C(C)=CC(C)(C)O2 (stereo not drawn) : 100
